- TARGET_OR_TEST_SYSTEM: CYP3A4 (Homo sapiens)
- Sequence (P08684 whole entry): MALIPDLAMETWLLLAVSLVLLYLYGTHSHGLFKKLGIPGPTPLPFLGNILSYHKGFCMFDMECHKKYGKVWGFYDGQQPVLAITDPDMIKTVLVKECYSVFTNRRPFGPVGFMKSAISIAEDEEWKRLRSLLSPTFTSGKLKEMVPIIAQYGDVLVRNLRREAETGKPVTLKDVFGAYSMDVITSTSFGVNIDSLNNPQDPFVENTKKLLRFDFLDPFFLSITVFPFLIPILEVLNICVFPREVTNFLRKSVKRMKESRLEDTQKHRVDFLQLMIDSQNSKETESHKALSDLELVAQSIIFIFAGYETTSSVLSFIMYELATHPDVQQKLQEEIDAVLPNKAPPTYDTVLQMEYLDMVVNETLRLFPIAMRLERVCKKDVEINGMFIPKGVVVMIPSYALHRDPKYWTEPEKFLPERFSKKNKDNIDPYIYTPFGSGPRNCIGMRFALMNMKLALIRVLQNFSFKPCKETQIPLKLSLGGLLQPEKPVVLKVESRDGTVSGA
- METHOD: Induction of CYP3A4 in human hepatocytes
- Format: ADME, cell-based, Hepatocyte
QUANTITY: pEC50
Schema: pEC50 number; meaning minus log10 of the concentration expressed in molar units.

Entry `C[C@H]1c2cccc(CCC(C)(C)O)c2C[C@H](CO)N1C(=O)Cc1c(Cl)cccc1Cl` — recorded pEC50 = 5.26

====

- TARGET_OR_TEST_SYSTEM: D(1A) dopamine receptor (Homo sapiens, UniProt P21728)
- Sequence (P21728 whole entry): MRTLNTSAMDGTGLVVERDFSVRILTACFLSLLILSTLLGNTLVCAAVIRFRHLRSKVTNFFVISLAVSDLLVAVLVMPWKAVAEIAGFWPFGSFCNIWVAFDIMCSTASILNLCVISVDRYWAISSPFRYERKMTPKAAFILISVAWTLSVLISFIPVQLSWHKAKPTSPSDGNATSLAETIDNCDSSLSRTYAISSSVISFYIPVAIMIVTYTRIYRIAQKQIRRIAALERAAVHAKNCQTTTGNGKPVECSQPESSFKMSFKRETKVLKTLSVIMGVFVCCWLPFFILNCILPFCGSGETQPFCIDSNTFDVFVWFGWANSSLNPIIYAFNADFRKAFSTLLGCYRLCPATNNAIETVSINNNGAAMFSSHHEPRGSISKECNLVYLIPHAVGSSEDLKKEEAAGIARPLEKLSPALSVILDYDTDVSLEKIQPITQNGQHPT
- METHOD: Positive allosteric modulation of human D1 receptor in HEK293 cells assessed as increase in cyclic AMP production measured after 60 mins in presence of dopamine by HTRF assay
QUANTITY: EC50 (nM)
A number alone suffices; assume nM.

Known value: D(1A) dopamine receptor (Homo sapiens, UniProt P21728) EC50 of the compound `C[C@H]1c2cccc(-c3cn[nH]c3)c2C[C@H](CO)N1C(=O)Cc1c(Cl)cccc1Cl` equals 6.41

Known value: D(1A) dopamine receptor (Homo sapiens, UniProt P21728) EC50 of the compound `C[C@H]1c2cccc(-c3cnn(C4CC4)c3)c2C[C@H](CO)N1C(=O)Cc1c(Cl)cccc1Cl` equals 10.3

Known value: D(1A) dopamine receptor (Homo sapiens, UniProt P21728) EC50 of the compound `CCn1cc(-c2cccc3c2C[C@H](CO)N(C(=O)Cc2c(Cl)cccc2Cl)[C@H]3C)cn1` equals 15.9

====

- METHOD: Solubility of compound at pH 6 by HTSA assay
- Assay type: physicochemical
- CONDITION_INFO: buffer
QUANTITY: solubility (µg/mL)
A number alone suffices; assume µg/mL.

Consider the worked cases shown below.
1. C[C@H]1c2cccc(-c3cnn(C4COC4)c3)c2C[C@H](CO)N1C(=O)Cc1c(Cl)cccc1Cl; 35
2. CCn1cc(-c2cccc3c2C[C@H](CO)N(C(=O)Cc2c(Cl)cccc2Cl)[C@H]3C)cn1; 12
3. C[C@H]1c2cccc(-c3cnn(C4CC4)c3)c2C[C@H](CO)N1C(=O)Cc1c(Cl)cccc1Cl; 2

Entry `C[C@H]1c2cccc(-c3cn[nH]c3)c2C[C@H](CO)N1C(=O)Cc1c(Cl)cccc1Cl` — recorded solubility = 27
